tested on: HOP-92 NSCLC; test: NCI-60 one-dose screen, 48 h; settings: 10 µM unless noted
About 83,000 compounds went through this panel and 20% of them were active in at least one assay; those are over-represented in the sample as a whole. The source made the active and inactive calls. How the source made its calls: active means growth percent below 10; inactive means the rest.
// classify into active, inactive

Enquiry: Please let me know the test result on file for `COc1ccc(C(C)=O)c(OC)c1` .
Return: inactive

Enquiry: Same for `Cc1ccccc1NS(=O)(=O)c1cccc(C(=O)Nc2ccc(Br)cc2)c1`
Return: inactive

Enquiry: Same for `COc1cc(-c2cc(-c3ccc(N(C)C)cc3)nc(N3CCOCC3)c2C#N)cc(OC)c1OC`
Return: active

Enquiry: Same for `Cc1cccc(C)c1N=c1oc2ccc(Cl)cc2nc1-c1ccccc1O`
Return: inactive

Enquiry: Same for O=C(/C(=C\c1ccc([N+](=O)[O-])cc1)S(=O)Cc1ccc(F)cc1)c1ccc(F)cc1 (stereo not given)
Return: inactive

Enquiry: Same for CC(Sc1nc2ccccc2c(=O)n1CCc1ccc(S(N)(=O)=O)cc1)C(=O)Nc1ccc(Cl)cc1 (stereo not given)
Return: inactive

Enquiry: Same for `Cc1nn(-c2ccccc2)c(Oc2c(Cl)cccc2Cl)c1/C=N/N=c1\sc2ccccc2n1C`
Return: inactive

Enquiry: Same for `Oc1c(Cl)cc(Cl)c(Cl)c1CNCCNCc1c(O)c(Cl)cc(Cl)c1Cl`
Return: inactive

Enquiry: Same for `CCCCCC(=O)Oc1ccc(/C(=C(\C)c2ccccc2)c2ccc(OCCN3CCCCC3)cc2)cc1`
Return: inactive

Enquiry: Same for `COC(=O)c1ccc2c(c1)[n+](=O)c(C(C)=O)c(C(F)(F)F)n2[O-]`
Return: active

Enquiry: Same for `COc1ccc(CCn2cncc2-c2c[nH]c3ccccc23)cc1`
Return: inactive

Enquiry: Same for `CCN(CC)c1ccc(/C=N/NC(=O)CSc2nc3ccccc3c(=O)n2CCc2ccc(S(N)(=O)=O)cc2)c(O)c1`
Return: inactive

Enquiry: Same for `O=C(O)c1ccc(-c2nn(-c3ccc(C(F)(F)F)cc3)cc2CNc2ccc(Oc3ccccc3)cc2)cc1`
Return: inactive

Enquiry: Same for `C=C(C)[C@@H]1CC[C@]2(C(=O)N3CCN(C)CC3)CC[C@]3(C)[C@H](CC[C@@H]4[C@@]5(C)C/C(=C/c6ccncc6)C(=O)C(C)(C)[C@@H]5CC[C@]43C)[C@@H]12`
Return: inactive

Enquiry: Same for `c1ccc(Cn2cnc3ccc(-c4nc(-c5ccc6c(c5)ncn6C5CCCCC5)cn5ccnc45)cc32)cc1`
Return: active
